- assay.system: sheep Cyclooxygenase-1 (Cox1), PTGS1 (gene 443551)
- assay.summary: NVS_ENZ_oCOX1: NovaScreen (NVS) Enzymatic Assay for sheep Cyclooxygenase-1 (Cox1) (AID 2283239);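 further: actives reduce cyclooxygenase activity so potencies are for inhibitors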
Results filed as inconclusive are left out. Activity calls are given as the source filed them. How the source made its calls: active means hit-call score of the fitted dose curve at least 0.9, where 1 is the maximum; inconclusive means response in the unintended direction; inactive means score below 0.9.
Outcome codes: 1 for active, -1 for inactive

| compound | group.label |
| --- | --- |
| Nc1nc2ncc(CNc3ccc(C(=O)N[C@@H](CCC(=O)O)C(=O)O)cc3)nc2c(=O)[nH]1 | 1 |
| O=C1OC(=O)C2C3C=CC(C3)C12 (stereo unspecified) | -1 |
| CCOC(=O)c1ccc(C2CCC(NC[C@H](O)COc3ccc(O)c(NS(C)(=O)=O)c3)CC2)cc1 (stereo partly specified) | 1 |
| CC(C)=CCCC(C)CCO (stereo unspecified) | 1 |
| CCc1cc(SCc2sc(-c3ccc(C(F)(F)F)cc3)nc2CN2CCN(c3ccc(OC)cc3)CC2)ccc1OCC(=O)O | -1 |
| C[C@](N)(Cc1ccc(O)c(O)c1)C(=O)O | 1 |
